system: DMS-114; assay: NCI tumour cell line growth inhibition, 48 h
Activity calls are given as the source filed them. Rule as the data show it: active = GI50 up to about 1.1 µM and inactive = higher.
Respond using exactly one of the listed classes: yes (1) = active, no (0) = inactive

Examples from the recorded data:
{"Compound": "Cc1nc2ccccc2c(=O)n1-c1ccccc1I", "Classification": "no (0)"}
{"Compound": "C/C(CCOC1CCCCO1)=C(\\C)[Si](C)(C)C (centres undefined)", "Classification": "no (0)"}
{"Compound": "O=C1c2ccccc2C(=O)C1C(c1ccc([N+](=O)[O-])cc1)C1C(=O)c2ccccc2C1=O", "Classification": "no (0)"}
{"Compound": "CC1CC2C(=O)N(c3ccccc3)C(=O)C2c2c1c1ccccc1n2Cc1ccccc1 (centres undefined)", "Classification": "no (0)"}
{"Compound": "COc1ccc(N2C(=O)C3CC(c4ccc(Br)cc4)c4c([nH]c5ccccc45)C3C2=O)cc1 (centres undefined)", "Classification": "no (0)"}

Called result for FC(F)(F)c1nc(-c2ccccc2Cl)[nH]c1C(F)(F)F
yes (1)

Also check C[C@@]12CCC(=O)c3coc(c31)C(=O)c1cc3c(cc12)C(=O)C=CC3=O
no (0)

Also check CC1(C)Cc2nnsc2C2=C1C(=O)CCS2
no (0)

Also check CN(C)C(=S)/N=c1\ss/c(=N\c2ccccc2)n1-c1ccccc1
no (0)
